Experiment Notes: Total clearance in monkey at 2 mg/kg, iv
Assay type: ADME, organism-based, Macaca mulatta
Design: dose 2 mg/kg, route intravenous
Measurement Context: rhesus monkey, in vivo
Measured Property: clearance (mL/min/kg)
Number in mL/min/kg, nothing else.

Quick one: clearance of `Cn1cc(Cl)c(C(=O)N2CCN(CC(=O)c3ccc(F)cc3)CC2)n1` ?
15

---

Experiment Notes: Protein binding in rat plasma
Format: ADME, cell-free
Measurement Context: read-out: PPB (converted)
Measured Property: fraction unbound
Form field (numeric): enter value without unit.

Quick one: fraction unbound of `Cn1cc(Cl)c(C(=O)N2CCN(CC(=O)c3ccc(F)cc3)CC2)n1` ?
0.49

---

Experiment Notes: Ratio of drug level in brain to plasma in Sprague-Dawley rat at 3 mg/kg, po after 0.75 hrs
Assay type: ADME, organism-based
Set-up: dose 3 mg/kg, route oral
Measured Property: Kp at 0.75 h

Record excerpt, results attached:
* Cn1cc(Cl)c(C(=O)N2CCN(CC(=O)c3ccc(F)cc3)CC2)n1 | 1.18
* Cn1cc(Br)c(C(=O)N2CCN(CCc3ccc(F)cc3)CC2)n1 | 2.02

Field: next compound
Quick one: Kp at 0.75 h of `COc1ccc(NC(=O)Nc2ccc(F)cc2F)cc1-c1c(Br)cnn1C` ?
0.65

---

Experiment Notes: Oral bioavailability in Sprague-Dawley rat at 3 mg/kg relative to 2 mg/kg, iv dose
Type: ADME, organism-based
Measurement Context: in vivo
Measured Property: bioavailability (%)
Number in %, nothing else.

Quick one: bioavailability of `Cn1cc(Cl)c(C(=O)N2CCN(CC(=O)c3ccc(F)cc3)CC2)n1` ?
67

---

The following are reported Ki results, target or system 5-hydroxytryptamine receptor 2A (Homo sapiens, UniProt P28223).
Number in nM, nothing else.

Record excerpt, results attached:
- Cn1cc(Br)c(C(=O)N2CCN(CCc3ccc(Cl)cc3)CC2)n1: 34
- Cn1cc(Br)c(C(=O)N2CCN(CCc3ccc(F)cc3F)CC2)n1: 1.1
- Cn1cc(Br)c(C(=O)N2CCN(CCc3ccccc3F)CC2)n1: 18
- Cn1cc(I)c(C(=O)N2CCN(CC(=O)c3ccc(F)cc3)CC2)n1: 4.5
- Cc1cc(C(=O)N2CCN(CC(=O)c3ccc(F)cc3)CC2)nn1-c1ccccc1: 11

Quick one: Ki of `Cn1cc(Br)c(C(=O)N2CCN(CC(=O)c3ccccc3F)CC2)n1` ?
270

Quick one: Ki of `Cc1cc(C(=O)N2CCN(CC(=O)c3ccc(F)cc3)CC2)nn1C` ?
8.5

Quick one: Ki of COc1ccc(NC(=O)Nc2ccc(F)cc2F)cc1-c1c(Br)cnn1C [NELOTANSERIN] ?
0.51

Quick one: Ki of `COc1ccc(CCN2CCN(C(=O)c3nn(C)cc3Br)CC2)cc1` ?
408

---

Experiment Notes: Oral bioavailability in monkey at 3 mg/kg relative to 2 mg/kg, iv dose
Assay type: ADME, organism-based, Macaca mulatta
Measurement Context: rhesus monkey, in vivo
Measured Property: bioavailability (%)
Number in %, nothing else.

Quick one: bioavailability of `Cn1cc(Cl)c(C(=O)N2CCN(CC(=O)c3ccc(F)cc3)CC2)n1` ?
26

---

Experiment Notes: Ratio of drug level in brain to plasma in Sprague-Dawley rat at 0.3 mg/kg, po after 0.75 hrs
Format: ADME, organism-based
Design: dose 0.3 mg/kg, route oral
Measured Property: Kp at 0.75 h
Form field (numeric): enter value without unit.

Quick one: Kp at 0.75 h of `Cn1cc(Cl)c(C(=O)N2CCN(CC(=O)c3ccc(F)cc3)CC2)n1` ?
1.18

---

Experiment Notes: Drug level in Sprague-Dawley rat plasma at 0.3 mg/kg, po after 0.75 hrs
Type: ADME, organism-based
Set-up: dose 0.3 mg/kg, route oral
Measurement Context: read-out: Drug uptake
# key: entry, value: concentration at 0.75 h
Number in ng/mL, nothing else.

- Cn1cc(Br)c(C(=O)N2CCN(CC(=O)c3ccc(F)cc3)CC2)n1: 17.8

Field: next molecule
Quick one: concentration at 0.75 h of `Cn1cc(Cl)c(C(=O)N2CCN(CC(=O)c3ccc(F)cc3)CC2)n1` ?
19.6

---

Experiment Notes: Total clearance in Sprague-Dawley rat at 2 mg/kg, iv
Assay type: ADME, organism-based
Design: dose 2 mg/kg, route intravenous
Measurement Context: in vivo
# key: entry, value: clearance
Number in mL/min/kg, nothing else.

Record excerpt, results attached:
- Cn1cc(Cl)c(C(=O)N2CCN(CC(=O)c3ccc(F)cc3)CC2)n1: 93.3
- Cn1cc(Br)c(C(=O)N2CCN(CC(=O)c3ccc(F)cc3)CC2)n1: 66.7

Field: next compound
Quick one: clearance of `Cn1cc(Br)c(C(=O)N2CCN(CCc3ccc(F)cc3)CC2)n1` ?
155

---

Experiment Notes: Cmax in monkey at 3 mg/kg, po
Assay type: ADME, organism-based, Macaca mulatta
Design: dose 3 mg/kg, route oral
Measurement Context: rhesus monkey, in vivo
Measured Property: Cmax (ng/mL)
Number in ng/mL, nothing else.

Quick one: Cmax of `Cn1cc(Cl)c(C(=O)N2CCN(CC(=O)c3ccc(F)cc3)CC2)n1` ?
600

---

# key: entry, value: half-life
Experiment Notes: Half life in Sprague-Dawley rat at 10 mg/kg, po
Assay type: ADME, organism-based
Set-up: dose 10 mg/kg, route oral
Measurement Context: in vivo
Number in h, nothing else.

• Cn1cc(Br)c(C(=O)N2CCN(CCc3ccc(F)cc3)CC2)n1 = 1.4

Quick one: half-life of `Cn1cc(Br)c(C(=O)N2CCN(CC(=O)c3ccc(F)cc3)CC2)n1` ?
2.1

---

System Under Test: 5-hydroxytryptamine receptor 2C (Homo sapiens)
Measured Property: pKi
Note on units: pKi is unitless, being -log10 of a concentration expressed in mol/L.

Record excerpt, results attached:
* Cn1cc(I)c(C(=O)N2CCN(CC(=O)c3ccc(F)cc3)CC2)n1 | 5.41
* Cc1[nH]nc(C(=O)N2CCN(CC(=O)c3ccc(F)cc3)CC2)c1Br | 5.45
* Cn1cc(Cl)c(C(=O)N2CCN(CC(=O)c3ccc(F)cc3)CC2)n1 | 5.85
* CO/N=C(/CN1CCN(C(=O)c2nn(C)cc2Br)CC1)c1ccc(F)cc1 | 5.07

Field: next molecule
Write down the reported pKi of COc1ccc(NC(=O)Nc2ccc(F)cc2F)cc1-c1c(Br)cnn1C [NELOTANSERIN] , test system: 5-hydroxytryptamine receptor 2C (Homo sapiens).
6.96

---

Experiment Notes: AUClast in mouse at 3 mg/kg, po
Type: ADME, organism-based
Design: time 0 - last, dose 3 mg/kg, route oral
Measurement Context: plasma
Measured Property: AUC(0-t)
Please give the number followed by its unit.

Quick one: AUC(0-t) of `Cn1cc(Cl)c(C(=O)N2CCN(CC(=O)c3ccc(F)cc3)CC2)n1` ?
459 ng·h/mL

---

Experiment Notes: Cmax in Sprague-Dawley rat at 10 mg/kg, po
Type: ADME, organism-based
Parameters: dose 10 mg/kg, route oral
Measurement Context: in vivo
# key: entry, value: Cmax
Number in ng/mL, nothing else.

Record excerpt, results attached:
• Cn1cc(Br)c(C(=O)N2CCN(CCc3ccc(F)cc3)CC2)n1 = 48
• Cn1cc(Br)c(C(=O)N2CCN(CC(=O)c3ccc(F)cc3)CC2)n1 = 1260

Quick one: Cmax of `Cn1cc(Cl)c(C(=O)N2CCN(CC(=O)c3ccc(F)cc3)CC2)n1` ?
1040

---

Experiment Notes: Drug level in Sprague-Dawley rat brain at 3 mg/kg, po after 0.75 hrs
Assay type: ADME, organism-based
Design: dose 3 mg/kg, route oral
Measurement Context: read-out: Drug uptake
Measured Property: concentration at 0.75 h (ng/mL)
Number in ng/mL, nothing else.

- Cn1cc(Br)c(C(=O)N2CCN(CCc3ccc(F)cc3)CC2)n1: 16.8

Quick one: concentration at 0.75 h of `COc1ccc(NC(=O)Nc2ccc(F)cc2F)cc1-c1c(Br)cnn1C` ?
320

---

Experiment Notes: Total clearance in mouse at 2 mg/kg, iv
Type: ADME, organism-based
Set-up: dose 2 mg/kg, route intravenous
Measurement Context: in vivo
Measured Property: clearance (mL/min/kg)
Number in mL/min/kg, nothing else.

Quick one: clearance of `Cn1cc(Cl)c(C(=O)N2CCN(CC(=O)c3ccc(F)cc3)CC2)n1` ?
93.3

---

System Under Test: Voltage-gated inwardly rectifying potassium channel KCNH2 (Homo sapiens)
Sequence (Q12809 whole entry): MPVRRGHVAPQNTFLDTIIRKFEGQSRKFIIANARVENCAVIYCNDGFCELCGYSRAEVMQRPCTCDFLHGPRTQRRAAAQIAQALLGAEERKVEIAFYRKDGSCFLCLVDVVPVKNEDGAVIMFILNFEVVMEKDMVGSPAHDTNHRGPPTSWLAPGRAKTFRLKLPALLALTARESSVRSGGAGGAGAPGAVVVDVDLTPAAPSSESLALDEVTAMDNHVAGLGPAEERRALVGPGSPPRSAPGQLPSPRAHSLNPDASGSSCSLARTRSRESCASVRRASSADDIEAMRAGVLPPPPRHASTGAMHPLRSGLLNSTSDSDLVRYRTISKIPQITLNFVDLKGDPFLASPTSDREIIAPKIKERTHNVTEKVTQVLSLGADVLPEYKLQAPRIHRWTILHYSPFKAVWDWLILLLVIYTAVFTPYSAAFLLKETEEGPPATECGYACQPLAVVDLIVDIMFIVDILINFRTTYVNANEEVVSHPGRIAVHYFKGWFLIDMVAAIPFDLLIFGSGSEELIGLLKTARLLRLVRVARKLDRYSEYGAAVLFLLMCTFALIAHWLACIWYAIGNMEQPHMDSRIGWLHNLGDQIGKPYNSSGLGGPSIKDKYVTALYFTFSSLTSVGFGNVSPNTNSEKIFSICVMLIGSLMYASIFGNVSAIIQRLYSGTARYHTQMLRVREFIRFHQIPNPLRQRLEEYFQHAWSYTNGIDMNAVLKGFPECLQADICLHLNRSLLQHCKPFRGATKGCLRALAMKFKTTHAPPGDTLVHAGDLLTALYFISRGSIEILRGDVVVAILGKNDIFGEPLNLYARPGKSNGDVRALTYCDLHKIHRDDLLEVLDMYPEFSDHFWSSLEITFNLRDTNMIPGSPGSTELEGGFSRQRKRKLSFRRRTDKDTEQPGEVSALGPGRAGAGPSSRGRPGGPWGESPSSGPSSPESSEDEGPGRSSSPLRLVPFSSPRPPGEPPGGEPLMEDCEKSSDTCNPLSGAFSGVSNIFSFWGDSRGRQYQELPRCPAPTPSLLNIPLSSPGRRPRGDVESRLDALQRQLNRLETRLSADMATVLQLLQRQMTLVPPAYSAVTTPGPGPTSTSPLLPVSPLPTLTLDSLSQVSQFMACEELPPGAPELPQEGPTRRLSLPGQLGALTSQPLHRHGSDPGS
Measured Property: IC50
Please give the number followed by its unit.

Quick one: IC50 of `Cn1cc(Cl)c(C(=O)N2CCN(CC(=O)c3ccc(F)cc3)CC2)n1` ?
30 µM

---

# key: entry, value: Ki
System Under Test: 5-hydroxytryptamine receptor 2C (Homo sapiens, UniProt P28335)
Sequence (P28335 whole entry): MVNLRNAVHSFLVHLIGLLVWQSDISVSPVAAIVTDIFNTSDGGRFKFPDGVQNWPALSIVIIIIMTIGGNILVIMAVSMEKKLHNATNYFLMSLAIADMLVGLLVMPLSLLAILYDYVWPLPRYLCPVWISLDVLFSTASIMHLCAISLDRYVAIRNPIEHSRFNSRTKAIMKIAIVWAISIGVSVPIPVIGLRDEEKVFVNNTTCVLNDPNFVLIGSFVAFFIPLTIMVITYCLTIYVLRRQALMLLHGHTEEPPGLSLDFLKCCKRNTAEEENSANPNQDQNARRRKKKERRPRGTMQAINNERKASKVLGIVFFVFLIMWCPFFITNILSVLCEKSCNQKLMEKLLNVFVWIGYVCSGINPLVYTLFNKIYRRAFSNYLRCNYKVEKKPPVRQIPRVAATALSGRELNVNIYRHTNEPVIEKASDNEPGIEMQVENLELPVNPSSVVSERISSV

Record excerpt, results attached:
• Cc1cc(C(=O)N2CCN(CC(=O)c3ccc(F)cc3)CC2)[nH]n1 = > 10 µM
• Cc1nc2n(c(=O)c1CCN1CCN(C(=O)c3nn(C)cc3Br)CC1)CCCC2 = > 10 µM

Field: next molecule
Write down the reported Ki of `Cn1cc(C(F)(F)F)c(C(=O)N2CCN(CC(=O)c3ccc(F)cc3)CC2)n1` , test system: 5-hydroxytryptamine receptor 2C (Homo sapiens, UniProt P28335).
3.87 µM
